# System: S. aureus MRO 00003
# protocol-text: Agar Dilution Method MIC, S. aureus MRO 00003
# Type: cell-based
# measurement-conditions: Staphylococcus aureus, MRO00003, Mueller Hinton Agar, 35° Celsius, 20 hours, read-out: Minimum Inhibitory Concentration (MIC in μg/ml)
# Description: Briefly, the compounds of invention were weighed, dissolved in Dimethyl Sulfoxide, serially diluted in the same solvent and then incorporated into molten Mueller Hinton Agar in a petridish before solidification, with each petridish containing a different concentration of a compound. […]
Form field: MIC (one value per entry).
Give a bare numeral; the unit µg/mL is implied.

CC(=S)NC[C@H]1CN(c2ccc(N3CCN(C(=S)c4cccs4)CC3)c(F)c2)C(=O)O1
1
CC(=S)NC[C@H]1CN(c2ccc(N3CCN(C(=S)c4ccc([N+](=O)[O-])o4)CC3)c(F)c2)C(=O)O1
0.5
CC(=S)NC[C@H]1CN(c2ccc(N3CCN(C(=S)c4ccsc4)CC3)c(F)c2)C(=O)O1
0.5
CC(=S)NC[C@H]1CN(c2ccc(N3CCN(C(=O)Nc4ccc([N+](=O)[O-])cc4)CC3)c(F)c2)C(=O)O1
0.5

[Q] Recorded MIC for CC(=S)NC[C@H]1CN(c2ccc(N3CCN(C(=S)c4ncc[nH]4)CC3)c(F)c2)C(=O)O1 , please?
[A] 0.5

[Q] Recorded MIC for CC(=S)NC[C@H]1CN(c2ccc(N3CCN(C(=S)NC(=O)c4ccccc4)CC3)c(F)c2)C(=O)O1 , please?
[A] 0.5

[Q] Recorded MIC for CC(=S)NC[C@H]1CN(c2ccc(N3CCN(C(=S)Cc4cccs4)CC3)c(F)c2)C(=O)O1 , please?
[A] 1

[Q] Recorded MIC for CC(=S)NC[C@H]1CN(c2ccc(N3CCN(C(=S)C4CC4)CC3)c(F)c2)C(=O)O1 , please?
[A] 1

[Q] Recorded MIC for CC(=S)NC[C@H]1CN(c2ccc(N3CCN(C(=S)c4ccc(Cl)s4)CC3)c(F)c2)C(=O)O1 , please?
[A] 0.5

[Q] Recorded MIC for CC(=S)NC[C@H]1CN(c2ccc(N3CCN(C(=S)c4ccc(C)s4)CC3)c(F)c2)C(=O)O1 , please?
[A] 0.5

[Q] Recorded MIC for CC(=S)NC[C@H]1CN(c2ccc(N3CCN(C(=S)c4cnccn4)CC3)c(F)c2)C(=O)O1 , please?
[A] 0.5

[Q] Recorded MIC for CC(=S)NC[C@H]1CN(c2ccc(N3CCN(C(=S)Nc4ccc([N+](=O)[O-])cc4)CC3)c(F)c2)C(=O)O1 , please?
[A] 0.5
